Molecular target: High affinity choline transporter 1 (Homo sapiens) (UniProt Q9GZV3)
Sequence (Q9GZV3 whole entry, looked up): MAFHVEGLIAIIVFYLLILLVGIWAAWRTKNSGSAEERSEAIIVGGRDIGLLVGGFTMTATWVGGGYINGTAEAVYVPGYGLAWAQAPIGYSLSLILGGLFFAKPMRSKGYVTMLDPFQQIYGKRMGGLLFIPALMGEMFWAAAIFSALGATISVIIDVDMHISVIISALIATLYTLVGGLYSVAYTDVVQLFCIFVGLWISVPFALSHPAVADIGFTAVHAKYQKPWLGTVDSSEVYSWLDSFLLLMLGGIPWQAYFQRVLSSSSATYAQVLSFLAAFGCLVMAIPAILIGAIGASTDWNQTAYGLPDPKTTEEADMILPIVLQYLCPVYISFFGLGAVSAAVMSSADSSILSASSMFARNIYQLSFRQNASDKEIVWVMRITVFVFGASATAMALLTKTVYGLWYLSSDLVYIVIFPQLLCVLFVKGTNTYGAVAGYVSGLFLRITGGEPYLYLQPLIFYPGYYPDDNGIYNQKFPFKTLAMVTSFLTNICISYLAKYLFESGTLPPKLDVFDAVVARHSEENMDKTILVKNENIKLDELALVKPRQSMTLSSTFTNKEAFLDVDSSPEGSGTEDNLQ
Experiment: CHT positive allosteric modulators, primary screen, cell-based, membrane potential dye, choline EC20 (AID 488977)
Conditions: CHT-expressing cells, at 10 µM, LV-AA mutant CHT in HEK293 cells
In all, about 310,000 compounds went through this assay and about 1,500 (0.48%) were called active.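 How the source made its calls: active means initial fluorescence not abnormally high and integrated response B-score, plate-corrected, over 3 SD above library mean; inactive means the rest.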 The sample holds actives, similar compounds and a random draw of the others, so the mix is not that of the screen.
Entry note: the call must match one of active, inactive

Assay result, entry COc1ccc(C2CC(c3ccc([N+](=O)[O-])cc3)=NN2C(C)=O)cc1 (stereo not drawn) — outcome?
inactive

Assay result, entry `Cc1ccc(C(=O)c2ccc(N3CCN(C)CC3)c([N+](=O)[O-])c2)cc1` — outcome?
active

Assay result, entry `O=C(Nc1ccccc1N1CCCCC1)c1cccc(F)c1` — outcome?
inactive

Assay result, entry `CCCCCCCCn1c2c(c(=N)c3c1CCC3)CCCC2` — outcome?
active

Assay result, entry COc1ccc(S(=O)(=O)N2CCCCC2)cc1NC(=O)C1CC(=O)N(c2ccc3c(c2)OCCO3)C1 (stereo not drawn) — outcome?
inactive

Assay result, entry `CCc1ccc(Nc2n[n+](-c3ccccc3)c(-c3cccc(Cl)c3Cl)s2)cc1` — outcome?
inactive

Assay result, entry `COC(=O)c1ccc(SCc2ccccc2)nc1` — outcome?
inactive

Assay result, entry `CC(C)(C)Nc1nc(-c2ccccn2)nc2ccccc12` — outcome?
active

Assay result, entry `COc1ccc2oc(C(=O)OCC(=O)N(CC(C)C)c3c(N)n(Cc4ccccc4)c(=O)[nH]c3=O)c(C)c2c1` — outcome?
inactive

Assay result, entry Cc1ccc(CNC(=O)c2cc(-c3ccccc3C)n(CC3CC(c4cccc([N+](=O)[O-])c4)=NO3)n2)cc1 (stereo not drawn) — outcome?
inactive

Assay result, entry `CCN1C(=NCCc2cccnc2)N[C@@H](c2ccccc2)[C@H](C(=O)OC)[C@H]1C` — outcome?
active

Assay result, entry `Cc1cccc(C(=O)Nc2ccccc2N2CCN(c3ccc(F)cc3)CC2)c1` — outcome?
inactive

Assay result, entry `CN(C)/C=C/C(=O)c1cnc2sccn2c1=O` — outcome?
active

====

Molecular target: High affinity choline transporter 1 (Homo sapiens)
Experiment: CHT positive allosteric modulators, primary screen, cell-based, membrane potential dye, choline EC20 (AID 488977)
Details: CHT-expressing cells, at 10 µM, LV-AA mutant CHT in HEK293 cells; stronger effect = higher value
The whole screen tested about 310,000 compounds, of which about 1,500 (0.48%) were called active. The full list was thinned out, with actives kept by preference.
value type: B-score

CN1CCN(c2nc3c(c(=O)[nH]c(=O)n3C)n2Cc2cccc3ccccc23)CC1	inactive
C#CCOCCOCCOCCNc1nc(N2CCN(C(=O)CCCCCCCCCCNC(=O)Cn3cc(CCCCCN)nn3)CC2)nc(N2CCN(C(=O)CCCCCCCCCCNC(=O)[C@H](CO)n3cc(CCCSC)nn3)CC2)n1	inactive
Cc1cc(=O)oc2c(C)c(OC(C)C(=O)NC3CCN(Cc4ccccc4)CC3)ccc12 (centres undefined)	6.43 (active)
Brc1cnc2ccccc2c1N1CCCCC1	inactive

====

Target: High affinity choline transporter 1 (Homo sapiens) (UniProt Q9GZV3)
Experiment: CHT positive allosteric modulators, primary screen, cell-based, membrane potential dye, choline EC20 (AID 488977)
Details: CHT-expressing cells, at 10 µM, LV-AA mutant CHT in HEK293 cells
The campaign covered roughly 310,000 compounds. About 1,500 (0.48%) were called active.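 Rule for the calls: active = initial fluorescence not abnormally high and integrated response B-score, plate-corrected, over 3 SD above library mean; inactive = the rest.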 The full list was thinned out, with actives kept by preference.
Entry note: the call must match one of Yes (active), No (inactive)

Assay result, entry `CCN(CC)CCn1c2c(c(SCC(=O)Nc3nc4ccccc4s3)nc1=O)CCCC2` — outcome?
No

Assay result, entry `COc1cc2c(cc1OC)C(Nc1ccc(S(N)(=O)=O)cc1)=NC(C)(C)C2` — outcome?
Yes

Assay result, entry `Cc1ccc(OCCCn2c(=O)oc3ccccc32)cc1` — outcome?
No

Assay result, entry `CCCCn1c(N)c(N(CCC(C)C)C(=O)c2ccc(COc3ccccc3)o2)c(=O)[nH]c1=O` — outcome?
Yes

Assay result, entry `Nc1ccccc1SCc1cc([N+](=O)[O-])cc2c1OCOC2` — outcome?
Yes

Assay result, entry `Cc1cc(Nc2ccc(Br)cc2)nc2ccccc12` — outcome?
No

Assay result, entry `Nc1nonc1-n1nnc(C(=O)N/N=C/c2ccccc2O)c1CN1CCCC1` — outcome?
No

Assay result, entry `CCCCCCCCCCOC(=O)Cn1c(COc2cccc(OC)c2)[n+](C)c2ccccc21` — outcome?
Yes

Assay result, entry C=CCOc1cccc(C2C(C(=O)c3ccc(C)o3)=C(O)C(=O)N2c2nnc(C)s2)c1 (stereo unspecified) — outcome?
No

Assay result, entry `CCN1/C(=C/c2ccc3ccc(C)cc3[n+]2CC)Sc2ccccc21` — outcome?
Yes

Assay result, entry CC(C)Oc1ccc(S(=O)(=O)N2CCOCC2)cc1NC(=O)C1CSC2(C)CCC(=O)N12 (stereo unspecified) — outcome?
No

Assay result, entry `Cc1ccc(-c2cc(=O)[nH]c(NCc3ccccc3)n2)cc1` — outcome?
No

Assay result, entry `CCCC(=O)Nc1ccc(Cl)c(NC(=O)c2ccc(Br)o2)c1` — outcome?
No

Assay result, entry `O=[N+]([O-])c1ccc(N2CCNCC2)cc1NCc1cccnc1` — outcome?
Yes

Assay result, entry `CCN1/C(=C/C(=S)Nc2ccccc2)Sc2ccccc21` — outcome?
No

Assay result, entry COc1cccc(CNC(=O)C(=O)NCCC2CCCCN2S(=O)(=O)c2ccc(C)cc2)c1 (stereo unspecified) — outcome?
No

Assay result, entry `O=C1c2ccccc2C(=O)c2c1cccc2N1CCN(CCO)CC1` — outcome?
Yes

Assay result, entry `CCOC(=O)CN(C)S(=O)(=O)c1ccc(-c2cc(C(=O)OC)sc2C(F)(F)F)cc1` — outcome?
No

Assay result, entry `CCn1cc(C(=O)NCCO)c(=O)c2cc(F)c(N3CCN(C)CC3)cc21` — outcome?
No

Assay result, entry `O=C1c2ccccc2C(=O)c2c1cccc2N1CCN(C/C=C/c2ccccc2)CC1` — outcome?
No

Assay result, entry `CCN(CC)C(=O)N(CC)Cc1ccccc1` — outcome?
No

Assay result, entry O=C(NCCc1ccco1)C(=O)NCCC1CCCCN1S(=O)(=O)c1ccccc1 (stereo unspecified) — outcome?
No

Assay result, entry `CCN1CCN(c2c(Cl)cccc2NC(=O)c2ccc(Br)o2)CC1` — outcome?
Yes

Assay result, entry `O=C(CCC1CCCCC1)Nc1cc(C(F)(F)F)ccc1N1CCOCC1` — outcome?
No

Assay result, entry `COc1cc2c(cc1O)C(SC)=NC(C)(C)C2` — outcome?
No

Assay result, entry `CCC(=O)c1ccc(N2CCN(C(=O)c3cc([N+](=O)[O-])ccc3F)CC2)c(F)c1` — outcome?
No

Assay result, entry `CCCCn1c(N)c(N(CC(C)C)C(=O)c2ccc(-n3c(C)ccc3C)cc2)c(=O)[nH]c1=O` — outcome?
No

Assay result, entry `Cc1ccc(OCC(=O)Oc2ccccc2[N+](=O)[O-])cc1` — outcome?
No

Assay result, entry `O=C(Nc1ccc(C(=O)N2CCOCC2)cc1)Nc1cccc(C(F)(F)F)c1` — outcome?
No

Assay result, entry `COc1ccc(NC(=O)CN(C)C(=O)c2cccc(S(=O)(=O)N3CCN(c4ccccc4)CC3)c2)cc1` — outcome?
No

Assay result, entry CC(OC(=O)CCCc1c[nH]c2ccccc12)C(=O)Nc1ccc(S(N)(=O)=O)cc1 (stereo unspecified) — outcome?
No
